Listed next: entries and their corresponding IC50.
- TARGET SYSTEM: CFTR channel in human colonic T84 cells (Homo sapiens)
- Construct: results in the phosphorylation and opening of CFTR anion channels; host or cells: human colonic T84 cells
- ASSAY EXPLANATION: T84 assay (FLIPR membrane potential dye, forskolin/IBMX-stimulated CFTR)
- Type: cell-based
- RUN PARAMETERS: average of at least 2 runs unless annotated n = 1
Kindly answer with a numeric value in µM, unit omitted.

Known results for molecules:
                                   molecule                             target_system  reading
0  Oc1c(Cl)cc(-c2cnc(OCc3ccc(F)cc3F)nn2)cc1Cl [Compound 148]  CFTR channel in human colonic T84 cells (Homo sapiens)     3.97
1  CC(=O)N1CCN(Cc2ccc(COc3ncc(-c4cc(Cl)c(O)c(Cl)c4)nn3)cc2)CC1 [Compound 216]  CFTR channel in human colonic T84 cells (Homo sapiens)     23.2
2  Oc1c(Br)cc(-c2cnc(OCc3ccccc3Br)nn2)cc1Br [Compound 6]  CFTR channel in human colonic T84 cells (Homo sapiens)      0.7

Here is another molecule to look at.
// CN(Cc1ccc(COc2ncc(-c3cc(Cl)c(O)c(Cl)c3)nn2)cc1)Cc1cccnc1 [Compound 222] : IC50 value = 11.2

* * *

- TARGET SYSTEM: CFTR channel in human colonic T84 cells (Homo sapiens, UniProt P13569)
- Construct: results in the phosphorylation and opening of CFTR anion channels; host or cells: human colonic T84 cells
- Sequence (P13569 whole entry): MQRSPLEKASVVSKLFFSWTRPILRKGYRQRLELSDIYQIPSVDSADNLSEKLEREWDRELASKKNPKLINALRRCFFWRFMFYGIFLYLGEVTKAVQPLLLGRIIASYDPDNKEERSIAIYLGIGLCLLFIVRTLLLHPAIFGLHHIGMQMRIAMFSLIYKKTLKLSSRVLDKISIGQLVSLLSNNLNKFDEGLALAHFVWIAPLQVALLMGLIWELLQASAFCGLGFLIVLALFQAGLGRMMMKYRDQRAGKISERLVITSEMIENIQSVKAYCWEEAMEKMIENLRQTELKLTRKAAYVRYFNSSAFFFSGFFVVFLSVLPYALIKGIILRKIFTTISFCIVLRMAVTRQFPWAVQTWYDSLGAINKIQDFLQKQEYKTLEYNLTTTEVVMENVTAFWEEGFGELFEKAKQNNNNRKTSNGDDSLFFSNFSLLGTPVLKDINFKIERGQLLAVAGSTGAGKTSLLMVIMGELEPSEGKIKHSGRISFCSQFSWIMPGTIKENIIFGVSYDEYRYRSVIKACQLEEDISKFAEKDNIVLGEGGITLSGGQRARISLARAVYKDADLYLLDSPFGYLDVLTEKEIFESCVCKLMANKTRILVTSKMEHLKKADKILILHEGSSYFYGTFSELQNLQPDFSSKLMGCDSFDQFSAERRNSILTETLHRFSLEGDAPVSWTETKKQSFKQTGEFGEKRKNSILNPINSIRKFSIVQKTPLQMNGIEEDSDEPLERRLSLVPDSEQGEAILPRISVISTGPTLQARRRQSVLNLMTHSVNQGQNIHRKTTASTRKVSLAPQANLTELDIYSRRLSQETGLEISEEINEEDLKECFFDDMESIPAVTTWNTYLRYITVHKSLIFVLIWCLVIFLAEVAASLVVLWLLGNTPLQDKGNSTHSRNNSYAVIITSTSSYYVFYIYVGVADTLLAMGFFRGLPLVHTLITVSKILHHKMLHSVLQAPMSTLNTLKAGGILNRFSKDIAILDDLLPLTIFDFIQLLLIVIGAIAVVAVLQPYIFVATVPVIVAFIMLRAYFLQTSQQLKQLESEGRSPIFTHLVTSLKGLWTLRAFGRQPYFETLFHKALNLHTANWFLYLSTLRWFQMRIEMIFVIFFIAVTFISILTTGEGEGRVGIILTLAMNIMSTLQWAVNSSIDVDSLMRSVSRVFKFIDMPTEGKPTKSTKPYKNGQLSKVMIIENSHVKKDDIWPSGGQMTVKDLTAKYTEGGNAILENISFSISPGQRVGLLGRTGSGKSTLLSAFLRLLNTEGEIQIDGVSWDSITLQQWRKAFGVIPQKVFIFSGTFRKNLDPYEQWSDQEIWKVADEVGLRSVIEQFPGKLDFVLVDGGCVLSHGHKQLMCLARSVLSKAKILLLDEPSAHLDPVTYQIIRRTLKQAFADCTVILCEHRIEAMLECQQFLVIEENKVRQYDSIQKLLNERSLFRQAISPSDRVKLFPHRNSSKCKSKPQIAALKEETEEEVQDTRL
- ASSAY EXPLANATION: T84 assay (FLIPR membrane potential dye, forskolin/IBMX-stimulated CFTR)
- Type: cell-based
- RUN PARAMETERS: average of at least 2 runs unless annotated n = 1
Structures can show the parent of a compound that is named as a salt.
Listed next: entries and their corresponding log10 of IC50.
All values: log10 IC50 [µM].

In [3]: df
Out[3]:
                                   compound                             target_system  reading
0  Oc1c(Cl)cc(-c2cnc(OCc3ccc(CNCc4ccc(F)cc4)cc3)nn2)cc1Cl  CFTR channel in human colonic T84 cells (Homo sapiens, UniProt P13569)     1.45
1  O=[N+]([O-])c1ccccc1SCc1ncc(-c2cc(Br)c(O)c(Br)c2)nn1  CFTR channel in human colonic T84 cells (Homo sapiens, UniProt P13569)     1.17
2  CN(Cc1ccc(COc2ncc(-c3cc(Cl)c(O)c(Cl)c3)nn2)cc1)Cc1ccc(CN2CCCC2)cc1 [Compound 211, diformate salt]  CFTR channel in human colonic T84 cells (Homo sapiens, UniProt P13569)     0.91

// OCCN(Cc1ccccc1)Cc1ccc(COc2ncc(-c3cc(Cl)c(O)c(Cl)c3)nn2)cc1 : log10 of IC50 value = 0.53

// Oc1c(Br)cc(-c2cnc(OCc3cccc4ccccc34)nn2)cc1Br : log10 of IC50 value = -0.06

// CN(C)c1cccc(COc2ncc(-c3cc(Cl)c(O)c(Cl)c3)nn2)c1 : log10 of IC50 value = 0.53

// CN(Cc1ccncc1)Cc1ccc(COc2ncc(-c3cc(Cl)c(O)c(Cl)c3)nn2)cc1 : log10 of IC50 value = 1.07

// Oc1c(Cl)cc(-c2cnc(OCc3ccc(CN4Cc5ccccc5C4)cc3)nn2)cc1Cl : log10 of IC50 value = 0.47

// Oc1c(Br)cc(-c2cnc(OCc3ccc4ccccc4c3)nn2)cc1Br : log10 of IC50 value = -0.14

// O=C(c1ccccc1)N1CCN(Cc2ccc(COc3ncc(-c4cc(Cl)c(O)c(Cl)c4)nn3)cc2)CC1 : log10 of IC50 value = 0.58

// Oc1c(Cl)cc(-c2cnc(OC(Cc3ccccc3)c3ccccc3)nn2)cc1Cl (centres unmarked) : log10 of IC50 value = 0.28

// Oc1c(Br)cc(-c2cnc(COc3ccc(C4SCCS4)cc3)nn2)cc1Br : log10 of IC50 value = 1.27

// Oc1c(Br)cc(-c2cnc(COc3cccc4ccccc34)nn2)cc1Br : log10 of IC50 value = 0.73

// Oc1c(Br)cc(-c2cnc(OCCc3cccc4ccccc34)nn2)cc1Br : log10 of IC50 value = -0.59

// C=CCc1ccccc1OCc1ncc(-c2cc(Br)c(O)c(Br)c2)nn1 : log10 of IC50 value = 1.10

// OCCN(Cc1ccc(COc2ncc(-c3cc(Cl)c(O)c(Cl)c3)nn2)cc1)Cc1cccc(Cl)c1Cl : log10 of IC50 value = 0.66

// Oc1c(Br)cc(-c2cnc(COc3ccc(Cl)cc3Cl)nn2)cc1Br : log10 of IC50 value = 1.04

* * *

- TARGET SYSTEM: CFTR channel in human colonic T84 cells (Homo sapiens, UniProt P13569)
- Construct: results in the phosphorylation and opening of CFTR anion channels; host or cells: human colonic T84 cells
- ASSAY EXPLANATION: T84 assay (FLIPR membrane potential dye, forskolin/IBMX-stimulated CFTR)
- Type: cell-based
- RUN PARAMETERS: average of at least 2 runs unless annotated n = 1
- Procedure: For example, Human colonic T84 cells can be acquired from the European Collection of Cell Cultures (ECACC) and grown in standard culture conditions as described by the supplier. […] T84 cells are incubated with the FLIPR Red membrane potential dye for 45 minutes in the presence and absence of test compound before being transferred to a commercially available fluorescence imaging plate reader (FLIPR384, Molecular Devices Corporation). […]
PARAMETER: IC50 (µM)
Kindly answer with a numeric value in µM, unit omitted.

Known results for compounds:
                                   compound  parameter  reading
0  Oc1c(Cl)cc(-c2cnc(OCc3ccc(CN4CCc5ccccc5C4c4ccncc4)cc3)nn2)cc1Cl (stereo not shown) [Compound 193]       IC50     3.92
1  CC1(C)Cc2cccc(OCc3ncc(-c4cc(Cl)c(O)c(Cl)c4)nn3)c2O1 [Compound 50]       IC50     15.4
2  CN(C)c1ccccc1COc1ncc(-c2cc(Cl)c(O)c(Cl)c2)nn1 [Compound 140]       IC50     19.4

Here is another compound to look at.
// CN(Cc1ccc(COc2ncc(-c3cc(Cl)c(O)c(Cl)c3)nn2)cc1)Cc1ccc(-c2ccncc2)cc1 [Compound 187] : IC50 value = 3.79

* * *

- TARGET SYSTEM: CFTR channel in human colonic T84 cells (Homo sapiens)
- Construct: results in the phosphorylation and opening of CFTR anion channels; host or cells: human colonic T84 cells
- ASSAY EXPLANATION: T84 assay (FLIPR membrane potential dye, forskolin/IBMX-stimulated CFTR)
- Assay type: cell-based
- RUN PARAMETERS: average of at least 2 runs unless annotated n = 1
Where a name gives a salt, the structure may show the parent alone.
PARAMETER: IC50 (µM)
Kindly answer with a numeric value in µM, unit omitted.

Known results for compounds:
In [3]: df
Out[3]:
                                   compound  parameter  unit_of_measure  reading
0  CN(Cc1ccc(COc2ncc(-c3cc(Cl)c(O)c(Cl)c3)nn2)cc1)Cc1cccc(-c2cccnc2)c1       IC50               µM     4.31
1  O=S1(=O)CCN(Cc2ccc(COc3ncc(-c4cc(Cl)c(O)c(Cl)c4)nn3)cc2)CC1 [Compound 136, formate salt]       IC50               µM     18.3
2  CN(Cc1ccc(COc2ncc(-c3cc(Cl)c(O)c(Cl)c3)nn2)cc1)Cc1cccc(-c2ccncc2)c1       IC50               µM     2.22
3  CN(Cc1ccc(COc2ncc(-c3cc(Cl)c(O)c(Cl)c3)nn2)cc1)Cc1ccc(OCCN2CCOCC2)cc1       IC50               µM     5.19
4  Oc1c(Br)cc(-c2cnc(OCCc3ccccc3Cl)nn2)cc1Br       IC50               µM     0.34

// OCCN(Cc1ccc(COc2ncc(-c3cc(Cl)c(O)c(Cl)c3)nn2)cc1)Cc1cccc(OCc2ccccc2Cl)c1 : IC50 value = 3.55

// Oc1c(Cl)cc(-c2cnc(C(O)(c3ccccc3)c3ccccc3)nn2)cc1Cl : IC50 value = 7.67
